- Protocol summary: Human HepG2 cell viability assay in 384 well format
- Format: toxicity, cell-based
- Set-up: dose 125 nL, time 70.5 hour; concentration not given beside the values
- Condition label: HepG2 cells, read-out: Inhibition
Observation type: cytotoxicity at 70.5 h (%)
Please give a number only; it is taken to be in %.

compound `COc1ccccc1OCCNCCn1cccn1` , cytotoxicity at 70.5 h observed: -10.7

Query `CN(C)CCOCc1nnc2n1CCN(c1cnccn1)CC2` yields cytotoxicity at 70.5 h of 12.4

Just so you know, measured cytotoxicity at 70.5 h for `O=C(NS(=O)(=O)c1ccc2c(c1)OCCO2)c1ccc(Br)cc1F` came out at 5.66

For reference, reported cytotoxicity at 70.5 h for `CC(C)c1noc(CN2CCN(C(=O)c3cccnc3O)CC2)n1` stands at -3.73

The measured cytotoxicity at 70.5 h associated with `Cc1c(-c2cc(C(=O)N3CCc4ncc(Cl)cc4C3)on2)cnn1C` reads 35

// cytotoxicity at 70.5 h value for `c1cnc(N2CCO[C@H]3[C@H](OCC4CCOCC4)CC[C@@H]32)nc1` : -10.9

Values from ChEMBL document CHEMBL3507680
